# method_notes: Plasma clearance in mouse at 3 mg/kg, iv by LC-MS method
# Format: ADME, organism-based
readout_name: clearance (mL/min/kg)
Answers are plain numbers, in mL/min/kg.

Prompt: Which clearance is listed for COC(=O)N[C@H](C(=O)N1CCC[C@H]1C(=O)Nc1ccc([C@@H]2CC[C@@H](c3ccc(NC(=O)[C@@H]4CCCN4C(=O)[C@@H](NC(=O)OC)C(C)C)cc3)N2c2ccc(C(C)(C)C)cc2)cc1)C(C)C ?
Completion: 1.83

###

# method_notes: Drug level in mouse at 3 mg/kg, po at 24 hrs by LC-MS method
# Format: ADME, organism-based
# measurement_parameters: in vivo, read-out: Drug uptake
readout_name: concentration at 24 h (nM)
One number for each entry, in nM.

1. COC(=O)N[C@H](C(=O)N1CCC[C@H]1c1nc2cc([C@H]3CC[C@H](c4cc5nc([C@@H]6CCCN6C(=O)[C@@H](NC(=O)OC)C(C)C)[nH]c5cc4F)N3c3cc(F)c(N4CCC(c5ccccc5)CC4)c(F)c3)c(F)cc2[nH]1)C(C)C = 754
2. COC(=O)N[C@H](C(=O)N1CCC[C@H]1C(=O)Nc1ccc([C@@H]2CC[C@@H](c3ccc(NC(=O)[C@@H]4CCCN4C(=O)[C@@H](NC(=O)OC)C(C)C)cc3)N2c2ccc(C(C)(C)C)cc2)cc1)C(C)C [OMBITASVIR] = 205
3. COC(=O)N[C@H](C(=O)N1CCC[C@H]1c1nc2cc(F)c([C@H]3CC[C@H](c4cc5[nH]c([C@@H]6CCCN6C(=O)[C@@H](NC(=O)OC)C(C)C)nc5cc4F)N3c3cc(F)c(N4CCC(c5ccc(F)cc5)CC4)c(F)c3)cc2[nH]1)C(C)C = 1710

Then there is this molecule:
Prompt: Which concentration at 24 h is listed for COC(=O)N[C@H](C(=O)N1CCC[C@H]1c1nc2cc([C@H]3CC[C@H](c4cc5nc([C@@H]6CCCN6C(=O)[C@@H](NC(=O)OC)[C@@H](C)OC)[nH]c5cc4F)N3c3cc(F)c(N4CCC(c5ccc(F)cc5)CC4)c(F)c3)c(F)cc2[nH]1)[C@@H](C)OC [PIBRENTASVIR] ?
Completion: 467
